All figures here come from PubChem BioAssay AID248.

# Test system: L1210 leukemia ip in BDF1 mice, survival T/C
# experimental protocol: NCI In Vivo Anticancer Drug Screen. Data for tumor model L1210 Leukemia (intraperitoneal) in B6D2F1 (BDF1) mice
# assay context: endpoint: mean survival time; dose: 400.0 mg/kg/injection; schedule: Q01DX001 (ip); vehicle: other; higher = longer survival
Toxic doses and inconclusive results are not listed.
T/C values by entry
quantity: T/C

> print(dat)
                                   compound  quantity       test.result
1          CCCCOC(=O)c1cccc2c1-c1ccccc1C2=O       T/C   91 % of control
2           COc1ccc(OC)c([N+](=O)[O-])c1C=O       T/C   90 % of control
3                 Clc1ccc(/C=C/c2ccccc2)cc1       T/C  111 % of control
4  COc1cc(CCN2CCN(c3cc(C)ccc3Cl)CC2)cc(OC)c1OC       T/C   97 % of control
5  CC(C)CC(NS(=O)(=O)Cc1ccccc1)C(=O)NN (stereo unspecified)       T/C  110 % of control
6  CC(C)CCC[C@@H](C)[C@H]1CC[C@H]2[C@@H]3C[C@@H](Br)[C@@]4(Br)C[C@@H](Cl)CC[C@]4(C)[C@H]3CC[C@]12C       T/C   96 % of control
